- Test protocol: qHTS assay to test for compound auto fluorescence at 535 nm (green) in HepG2 cells (AID 720675); further: on the % scale 0 is the no-effect control and ±100 the full control effect
- Run parameters: green autofluorescence 485/535 nm, 1 h; series mostly up to 91.3 µM
Active and inactive are the calls of the source. The call rests on the fitted dose curve; in most records, active means well fitted curve in the direction sought with a large enough effect in the repeat runs; inconclusive means weak or mixed curves; inactive means flat fitted curve, though single readings scatter.
Metric: fluorescence, % of fluorescein control

Record excerpt, results attached:
Nc1ccc(C(=O)O)c(O)c1	inactive
O=C1C(c2[nH]c3ccc(S(=O)(=O)O)cc3c2O)=Nc2ccc(S(=O)(=O)O)cc21	inactive
Cc1ccc(N/N=c2\c(=O)cc/c(=N\Nc3ccc(S(=O)(=O)O)cc3)c2=O)c(C)c1	inactive
CN(C)c1ccc(C(=C2C=CC(=[N+](C)C)C=C2)c2ccc(N(C)C)cc2)cc1	inactive
CCCCNS(=O)(=O)c1ccc(C)cc1	inactive
CC(C)(c1cc(Br)c(OCC(Br)CBr)c(Br)c1)c1cc(Br)c(OCC(Br)CBr)c(Br)c1 (stereo unspecified)	inactive
OC12N=C(c3ccccc3)SC1Cc1cc(Cl)ccc12 (stereo unspecified)	inactive
Oc1c(I)cc(Cl)c2cccnc12	inactive
O=C(O)c1cc(N=Nc2ccc([N+](=O)[O-])cc2)ccc1O	inactive
Cc1ccc(O)c(N)c1	inactive

// next entry
# compound CC(C)OC(=O)C(O)(CC(=O)O)CC(=O)O ; its fluorescence, % of fluorescein control = inactive

###

- Test protocol: qHTS assay for small molecules that induce genotoxicity in human embryonic kidney cells expressing luciferase-tagged ATAD5 (AID 651632); further: on the % scale 0 is the no-effect control and ±100 the full control effect; nearly all actives have a fitted effect of over 15% in size
- Run parameters: HEK293T ATAD5-luciferase induction, 16 h; series mostly up to 83.3 µM
Results filed as inconclusive are left out. Active and inactive are the calls of the source. Calls come from the whole dose curve; as a rule, active = well fitted activation curve with a large enough effect in the repeat runs; inconclusive = weak or mixed curves; inactive = no such curve, though single readings can be large or run the other way.
Metric: Potency

Below, 10 molecules whose answers are already recorded.
CCc1cccc(CC)c1NC(=O)CN(CC(=O)O)CC(=O)O	inactive
COc1cc(S(=O)(=O)O)c(C)cc1N=Nc1c(O)ccc2cc(S(=O)(=O)O)ccc12	inactive
COc1cccc(OC)c1C(=O)O	inactive
Nc1nc(N)nc(-c2cc(Cl)ccc2Cl)n1	inactive
S=c1nccc[nH]1	inactive
Cc1nc(-c2ccc(Cl)cc2)oc1COC(C)(C)C(=O)O	inactive
CC(=O)[C@H]1CC[C@H]2[C@@H]3CCC4=CC(=O)CC[C@]4(C)[C@H]3CC[C@]12C	inactive
COC(=O)c1ccccc1OC	inactive
CCC(C)n1ncn(-c2ccc(N3CCN(c4ccc(OC[C@H]5CO[C@](Cn6cncn6)(c6ccc(Cl)cc6Cl)O5)cc4)CC3)cc2)c1=O (stereo partly drawn)	inactive
CC(C)OC(=O)C(O)(CC(=O)O)CC(=O)O	inactive

# ---- query molecule ----
Sample C1CCC(SSC2CCCCC2)CC1 ; Potency observed: inactive

###

- Test protocol: qHTS assay to identify small molecule agonists of the farnesoid-X-receptor (FXR) signaling pathway - cell viability counter screen (AID 743218); further: nearly all actives have a fitted effect of over 45% in size
- Run parameters: FXR-bla HEK293T viability, CellTiter-Glo luminescence, 16 h; series mostly up to 62.6 µM
Records with an inconclusive call do not appear. Activity calls are given as the source filed them. Calls follow the shape of the dose curve; as a rule, active = well fitted cell-killing curve with a large enough effect in the repeat runs; inconclusive = weak or mixed curves, or effect the other way; inactive = no such curve, though single readings can be large or run the other way.
Select the correct class. Options are class 1 (active), class 0 (inactive) and nothing else.

Reference set, count: 5
COc1ccc2c(c1)c(CC(=O)OC/C=C(\C)CC/C=C(\C)CCC=C(C)C)c(C)n2C(=O)c1ccc(Cl)cc1	class 0
Cc1c(N)cccc1C(F)(F)F	class 0
Cc1cc(=O)oc2cc(O)cc(O)c12	class 0
O=[N+]([O-])c1ccc(O)cc1C(F)(F)F	class 0
CCCCCCCCCCOC(=O)c1ccccc1C(=O)OCCCCCCCC	class 0

I would be grateful if you could indicate the recorded call for CCN1C(=O)c2ccccc2C1Nc1ccc(OCCN2CCCCC2)cc1 (centres undefined) .
class 0

Short answer needed: outcome of this test for CCCCCCCCCCCCOC(=O)c1ccc(O)cc1 ?
class 1

Per the assay record, what outcome was assigned to Cc1cc(C(C)(C)C)cc(C)c1CC1=NCCN1 ?
class 0

###

- Test protocol: qHTS assay to identify small molecule antagonists of the sonic hedgehog signaling (Shh) pathway - cell viability counter screen (AID 1259367); further: nearly all actives have a fitted effect of over 55% in size
- Run parameters: NIH/3T3 Gli1-Luc viability, CellTiter-Fluor, 24 h; series mostly up to 92.4 µM
Inconclusive results are not listed. Activity calls are given as the source filed them. The call rests on the fitted dose curve; in most records, active means well fitted cell-killing curve with a large enough effect in the repeat runs; inconclusive means weak or mixed curves, or effect the other way; inactive means no such curve, though single readings can be large or run the other way.
Select the matching outcome among class 1 for active, class 0 for inactive

O=C(O)c1cc(=O)c2ccccc2o1	class 0
O=c1c(O)c(-c2ccc(O)cc2O)oc2cc(O)cc(O)c12	class 1
S=C([S-])NCCNC(=S)[S-].S=C([S-])NCCNC(=S)[S-].[Mn+2].[Zn+2]	class 0
CC(C)CCCCCOC(=O)CCS	class 0
CCCC(=O)OC(C)(C)Cc1ccccc1	class 0

Now for a further compound.
What did the test return for NC(=O)c1cccc([N+](=O)[O-])c1 ?
class 0

###

- Test protocol: qHTS RealTime-Glo MT Cell Viability Assay in HEK293 cells - 32 hour (AID 1224868); further: nearly all actives have a fitted effect of over 50% in size; further: potency means the concentration at half of the fitted maximal effect
- Run parameters: RealTime-Glo luminescence; series mostly up to 76.8 µM
- Excerpt: National Center for Advancing Translational Sciences [NCATS] NIH Chemical Genomics Center [NCGC] U.S. Environmental Protection Agency [EPA] National Institutes of Environmental Health Sciences [NIEHS] National Toxicology Program [NTP] U.S. Food and Drug Administration [FDA] Measure of cell viability is critical in the cell-base assay. Analysis of cell viability is necessary for the characterization of cell responses to cytotoxic drugs and environmental stress. […]
Records with an inconclusive call do not appear. Activity calls are given as the source filed them. The call rests on the fitted dose curve; in most records, active means well fitted cell-killing curve with a large enough effect in the repeat runs; inconclusive means weak or mixed curves, or effect the other way; inactive means flat fitted curve, though single readings scatter.
Metric: Potency

Use these answered entries as a reference point.
CCCCCCCCCCCCOCCOCCOCCOCCOCCOCCOCCOCCOCCO	5.35 µM (active)
O=C1CCc2ccc(OCCCCN3CCN(c4cccc(Cl)c4Cl)CC3)cc2N1	10.7 µM (active)
CCCC(=O)OC(C)(C)Cc1ccccc1	inactive
CC(C)(C)c1csc(-c2cc3cc(OCc4ccccc4CC(=O)O)ccc3o2)n1	38.9 µM (active)
COC(C)=O	inactive

Form: compound = O=C(O)c1ccc2cc(C(=O)O)ccc2c1 ; Potency = inactive

Lookup result for CC1(C)CC(O)CC(C)(C)N1 ; measured Potency: inactive

###

- Test protocol: A CellTox Green Cytotoxicity Assay to monitor cytotoxicity in HEK293 cells - 0 hour (AID 1224869); further: on the % scale 0 is the no-effect control and ±100 the full control effect; nearly all actives have a fitted effect of over 50% in size
- Run parameters: CellTox Green fluorescence; series mostly up to 76.8 µM
Calls of active or inactive are those of the source. Calls follow the shape of the dose curve; as a rule, active = well fitted activation curve with a large enough effect in the repeat runs; inconclusive = weak or mixed curves; inactive = flat fitted curve, though single readings scatter.
Metric: cytotoxicity

Past entries and their recorded results:
Oc1c(I)cc(Cl)c2cccnc12	inactive
CC(C)(C)CC(C)(C)c1ccc(Nc2ccc(C(C)(C)CC(C)(C)C)cc2)cc1	3.78% [at 6.97 µM] (inactive)
CC1(C)[C@@H](O)CC[C@]2(C)[C@H]3C(=O)C=C4[C@@H]5C[C@@](C)(C(=O)O)CC[C@]5(C)CC[C@@]4(C)[C@]3(C)CC[C@@H]12	inactive
[Cl][Pt-2]([Cl])([Cl])[Cl]	inactive
Clc1nnc(Cl)c2ccccc12	inactive

With those in mind, consider the next molecule.
For this molecule ( O=C(O)O ), measured cytotoxicity is 2.74% [at 6.97 µM] (inactive)

###

- Test protocol: qHTS assay to identify small molecule antagonists of the estrogen receptor alpha (ER-alpha) signaling pathway using the BG1 cell line in the presence of 0.1 nM 17-beta-estradiol - cell viability counter screen (AID 1259241); further: nearly all actives have a fitted effect of over 40% in size
- Run parameters: VM7Luc4E2 (BG1) viability, CellTiter-Fluor protease, 22 h, 0.1 nM estradiol agonist added; series mostly up to 92.4 µM
Records with an inconclusive call do not appear. Active and inactive are the calls of the source. Calls follow the shape of the dose curve; as a rule, active = well fitted cell-killing curve with a large enough effect in the repeat runs; inconclusive = weak or mixed curves, or effect the other way; inactive = flat fitted curve, though single readings scatter.
Would you mind answering with one of these outcomes? y for active, n for inactive

Cc1ccc(C(C)C)cc2c(C)ccc1-2	n
Cc1cc(C(C)(C)C)cc(C)c1CC1=NCCN1	n
CCCc1ccc(OCC(=O)N2CCN(C(=O)COc3ccc(CCC)cc3OC)CC2)c(OC)c1	n
CCCCCCCCCCCCOCCOCCOCCOCCOCCOCCOCCOCCOCCO	y
CN1CCN2c3ccccc3Cc3ccccc3C2C1 (stereo unspecified)	n

Now consider a different compound.
Status in this test for Nc1cc(Cl)c(O)c(Cl)c1 ?
n

###

- Test protocol: qHTS assay to identify small molecule agonists of the vitamin D receptor (VDR) signaling pathway - cell viability counter screen (AID 743224); further: nearly all actives have a fitted effect of over 50% in size
- Run parameters: VDR-bla HEK293T viability, CellTiter-Glo luminescence, 16 h; series mostly up to 62.6 µM
Inconclusive results are not listed. Calls of active or inactive are those of the source. Calls follow the shape of the dose curve; as a rule, active = well fitted cell-killing curve with a large enough effect in the repeat runs; inconclusive = weak or mixed curves, or effect the other way; inactive = no such curve, though single readings can be large or run the other way.
Respond using exactly one of the listed classes: 1 = active, -1 = inactive

Below are worked cases with known answers.
COc1ccc2c(c1)c(CC(=O)OC/C=C(\C)CC/C=C(\C)CCC=C(C)C)c(C)n2C(=O)c1ccc(Cl)cc1	-1
O=C(O)c1cc(N=Nc2ccc([N+](=O)[O-])cc2)ccc1O	-1
CCOc1ccc2ccccc2c1C(=O)N[C@@H]1C(=O)N2[C@@H]1SC(C)(C)[C@@H]2C(=O)O	-1
CNc1ccc([N+](=O)[O-])cc1	-1
C=Cc1cccc(C)c1	-1
Oc1c(I)cc(Cl)c2cccnc12	1

Identify the outcome logged in this assay for the compound shown: Cc1nc2n(c(=O)c1CCN1CCC(c3noc4cc(F)ccc34)CC1)CCCC2
-1

Each compound tested received a call. Report the one for COC(=O)C1=C(C)NC(C)=C(C(=O)OCCN2CCN(C(c3ccccc3)c3ccccc3)CC2)C1c1cccc([N+](=O)[O-])c1 (stereo unspecified) .
-1

Tell me the recorded outcome of this test for O=c1[nH]c2ccccc2n1CCCN1CCN(C(c2ccccc2)c2ccccc2)CC1 .
-1

Tell me the assay call for CCCCCCCCCCCCCCCC[N+](C)(C)CC please.
1

Identify the outcome logged in this assay for the compound shown: OCC(F)(F)F
-1
